The following binders are shown together with reported EC50 [µM], FXa generation assay values.
# measured-on: human Factor IXa (human, UniProt P00740 47-191; P00740 227-461)
# method-notes: cell-based or functional assay
Square brackets hold non-standard residues; d marks the D form. Primed or numbered codes have the meaning given here. Ends that are not written are not given here. * marks the point of attachment. N‑PEG5kmaleimide = Cys side chain bound to N-PEG 5 kDa maleimide; Biotin = O=C1N[C@H]2[C@H](CS[C@H]2CCCCC(=O)*)N1; PEG2(3) = PEG2 spacer carrying biotin on Lys; NMeS = CN[C@@H](CO)C(=O)O; PEG4′ = PEG4 spacer

• {(PEG)27}-KLTCLASYCWLF (cysteine pairing not given here) [(PEG)27-KLTCLASYCWLF] = > 1 µM
• C(N‑PEG5kmaleimide)[PEG4′]SKQGRPISPD[dR]RAAGKLTCLASYCWLFWTGIA (cysteine pairing not given here) [C(N-PEG5kmaleimide)-PEG4-SKQGRPISPDrRAAGKLTCLASYCWLFWTGIA] = > 1 µM
• RRAPGKLTCLASYCWLFWAGIAPHRPLKERVR [RRAPGKLTCLASYCWLF WAGIA PHRPLKERVR] = > 1 µM
• KLTCLASKCWLF = > 100 µM
• {Biotin-PEG2(3)}-LYTAWIKCQFARLPGCALSGRW (cysteine pairing not given here) [Biotin-PEG2-LYTAWIKCQFARLPGCALSGRW] = > 10 µM

Then there is this binder:
In: Quote EC50 [µM], FXa generation assay reported for KLTCLA[NMeS]YCWLF (cysteine pairing not given here) [KLTCLA-MeSer-YCWLF] please.
Out: > 20 µM
